Assay: chemical genetic growth profiling, strain panel (AID 1159580);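 note: tested at 20 µM; growth read once vehicle control cultures reached saturation at 30 °C; 1 = growth at the plate median or of vehicle wells; lower values mean less growth of the strain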
Conditions: S. cerevisiae deletion strains, growth OD, locus YKL160W, strain elf1, stronger effect = lower value
Screen size: about 5,500 compounds; about 2,000 (36%) were called active. About 18% were inconclusive and are not listed. The list shows a part of the results.
measuredAttribute: normalized growth

**Query** Fill in: normalized growth of "C[C@H](N)[C@H](O)c1ccc(O)c(O)c1" is ___
**Result** 0.981 (inactive)

Others:
**Query** Fill in: normalized growth of "CCN(CC)CCOc1ccc(/C(=C(\Cl)c2ccccc2)c2ccccc2)cc1" is ___
**Result** 0.195 (active)

**Query** Fill in: normalized growth of "O=C(O)c1ccccc1Nc1ccccc1" is ___
**Result** 0.938 (inactive)

----------
Experiment: chemical genetic growth profiling, strain panel (AID 1159580);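 note: tested at 20 µM; growth read once vehicle control cultures reached saturation at 30 °C; 1 = growth at the plate median or of vehicle wells; lower values mean less growth of the strain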
Details: S. cerevisiae deletion strains, growth OD, locus YCL061C, strain MRC1, stronger effect = lower value
The whole screen tested about 5,500 compounds, of which about 2,000 (36%) were called active. Not shown: some 18% with an inconclusive outcome. This is one part of the list.
Measured normalized growth accompanies every entry in the list below.
Give the value as a plain number.

Here is how some molecules turned out for normalized growth.
**Query** Fill in: normalized growth of "O=[N+]([O-])c1cc(O)c(O)c([N+](=O)[O-])c1" is ___
**Result** 1.03

**Query** Fill in: normalized growth of "CS(=O)(=O)CCCCN=C=S" is ___
**Result** 0.834

**Query** Fill in: normalized growth of "C[C@H](N)[C@H](O)c1ccc(O)c(O)c1" is ___
**Result** 1

**Query** Fill in: normalized growth of "NC(=NS(=O)(=O)c1cc(C(F)(F)F)cc(C(F)(F)F)c1)c1cccs1" is ___
**Result** 0.996

Others:
**Query** Fill in: normalized growth of CC(=O)c1c(O)c(C)c(O)c2c1OC1=CC(=O)C(C(C)=O)C(=O)C12C (stereo not given) is ___
**Result** 0.858

----------
Assay: chemical genetic growth profiling, strain panel (AID 1159580);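 note: tested at 20 µM; growth read once vehicle control cultures reached saturation at 30 °C; 1 = growth at the plate median or of vehicle wells; lower values mean less growth of the strain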
Conditions: S. cerevisiae deletion strains, growth OD, locus YLR370C, strain arc18
Among all 5,500 compounds or so, about 2,000 (36%) were called active. Not shown: some 18% with an inconclusive outcome. Rule as the data show it: active = normalized growth mostly below about 0.91 (no sharp cut-off); inconclusive = no clear call, values can overlap the other calls; inactive = mostly above about 0.92. The list shows a part of the results.
I would appreciate it if you answered using one of these outcomes: yes (active), no (inactive)

The examples below pair each entry with its known result.
**Query** What outcome does the record of this test show for C1CCN2CC3CC(CN4CCCCC34)C2C1 (configuration not stated) ?
**Result** no

**Query** What outcome does the record of this test show for CC(=O)O[C@H]1C[C@@H](OC(C)=O)C(C)(C)C2C[C@@H](OC(C)=O)[C@@]3(C)C4=CC(=O)O[C@@H](c5ccoc5)[C@]4(C)CCC3[C@]21C (some centres not stated) ?
**Result** no

**Query** What outcome does the record of this test show for "Nc1ccc(S(=O)(=O)Nc2ccc(Cl)nn2)cc1" ?
**Result** no

**Query** What outcome does the record of this test show for C=CC(C1=CC(=O)C(OC)=CC1=O)c1ccc(OC)cc1 (configuration not stated) ?
**Result** yes

**Query** What outcome does the record of this test show for "Nc1ccc(C(=O)NCC(=O)O)cc1" ?
**Result** no

Others:
**Query** What outcome does the record of this test show for "O=C(O[C@@H]1Cc2c(O)cc(O)cc2O[C@@H]1c1cc(O)c(O)c(O)c1-c1c([C@H]2Oc3cc(O)cc(O)c3C[C@H]2O)cc(O)c(O)c1O)c1cc(O)c(O)c(O)c1" ?
**Result** no

**Query** What outcome does the record of this test show for "Cc1ccc2c(Cl)cc(Cl)c(O)c2n1" ?
**Result** no

**Query** What outcome does the record of this test show for "Cc1c(Nc2ncccc2C(=O)O)cccc1C(F)(F)F" ?
**Result** no

**Query** What outcome does the record of this test show for "C[C@H](N)[C@H](O)c1ccc(O)c(O)c1" ?
**Result** no

**Query** What outcome does the record of this test show for "CC(C)=CCC/C(C)=C/CC/C(C)=C/CC/C(C)=C/CC/C(C)=C/CC/C(C)=C/CC/C(C)=C/CC/C(C)=C/CC/C(C)=C/CO" ?
**Result** no

**Query** What outcome does the record of this test show for "C1CNCCN1" ?
**Result** no

**Query** What outcome does the record of this test show for "Oc1c(Br)cc(Br)c2cccnc12" ?
**Result** yes
